system tested: PARP7 (Homo sapiens)
Construct: purchased BPS 80527
Sequence (Q7Z3E1 whole entry): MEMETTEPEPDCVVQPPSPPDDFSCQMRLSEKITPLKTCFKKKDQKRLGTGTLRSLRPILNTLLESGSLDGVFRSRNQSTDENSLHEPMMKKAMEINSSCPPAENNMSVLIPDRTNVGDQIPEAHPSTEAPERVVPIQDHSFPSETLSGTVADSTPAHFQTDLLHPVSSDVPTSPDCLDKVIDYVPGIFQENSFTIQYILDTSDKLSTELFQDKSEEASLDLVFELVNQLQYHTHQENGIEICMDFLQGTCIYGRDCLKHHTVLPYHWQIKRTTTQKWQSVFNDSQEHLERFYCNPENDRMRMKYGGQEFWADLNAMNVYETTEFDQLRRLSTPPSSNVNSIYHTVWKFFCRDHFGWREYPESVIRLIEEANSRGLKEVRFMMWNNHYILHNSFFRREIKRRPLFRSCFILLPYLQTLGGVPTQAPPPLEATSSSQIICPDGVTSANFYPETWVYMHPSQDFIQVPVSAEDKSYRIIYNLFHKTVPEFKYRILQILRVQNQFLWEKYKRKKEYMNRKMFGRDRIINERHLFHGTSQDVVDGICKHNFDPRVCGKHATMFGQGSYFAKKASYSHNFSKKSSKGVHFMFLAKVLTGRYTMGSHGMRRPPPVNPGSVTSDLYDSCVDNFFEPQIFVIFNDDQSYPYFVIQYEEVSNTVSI
assay: PARP7 TR-FRET binding inhibition (displacement of probe RBN011147)
applied conditions: TR-FRET, Biotin-labeled probe RBN011147; read-out: PARP7 binding inhibition IC50
recorded metric: IC50

Sample records with IC50:
In [3]: df
Out[3]:
                                   molecule  recorded_metric          reading
0  N#C[C@@H]1CCN(C(=O)[C@@H](CCCNC(=O)c2ccc(-c3ncc(C(F)(F)F)s3)cc2)Nc2cn[nH]c(=O)c2C(F)(F)F)C1             IC50  0.01 to 0.03 µM
1  O=C(NCCC[C@@H](Nc1cn[nH]c(=O)c1C(F)(F)F)C(=O)N1CC[C@@H](F)C1)c1ccc(-c2ncc(C(F)(F)F)s2)cc1             IC50        < 0.01 µM
2  CC(CCCNC(=O)c1ccc(-c2cc(C(F)(F)F)on2)cc1)Nc1cn[nH]c(=O)c1C(F)(F)F (stereo not shown)             IC50        < 0.01 µM

Bench note, PARP7 (Homo sapiens): entry CNC(=O)[C@@H](CCCNC(=O)c1ccc(-c2ncc(C(F)(F)F)s2)cc1)Nc1cn[nH]c(=O)c1C(F)(F)F , its IC50 = 0.01 to 0.03 µM

Observed IC50 on PARP7 (Homo sapiens), entry CC(CCCNC(=O)c1ccc(-c2nc(C(F)(F)F)no2)cc1)Nc1cn[nH]c(=O)c1C(F)(F)F (stereo not shown) , equals 0.01 to 0.03 µM

For CC(CCCNC(=O)c1cnc(-n2cc(C(F)(F)F)cn2)cn1)Nc1cn[nH]c(=O)c1C(F)(F)F (stereo not shown) on PARP7 (Homo sapiens), measured IC50 was 0.01 to 0.03 µM

Item: COc1cnc(-c2ccc(C(=O)NCCCC(C)Nc3cc[nH]c(=O)c3C(F)(F)F)c(F)c2)s1 (stereo not shown) | System: PARP7 (Homo sapiens) | IC50: 0.01 to 0.03 µM

----------
Listed here are molecules together with their documented pIC50.
system tested: UniProt P09874
Sequence (P09874 whole entry, species assumed): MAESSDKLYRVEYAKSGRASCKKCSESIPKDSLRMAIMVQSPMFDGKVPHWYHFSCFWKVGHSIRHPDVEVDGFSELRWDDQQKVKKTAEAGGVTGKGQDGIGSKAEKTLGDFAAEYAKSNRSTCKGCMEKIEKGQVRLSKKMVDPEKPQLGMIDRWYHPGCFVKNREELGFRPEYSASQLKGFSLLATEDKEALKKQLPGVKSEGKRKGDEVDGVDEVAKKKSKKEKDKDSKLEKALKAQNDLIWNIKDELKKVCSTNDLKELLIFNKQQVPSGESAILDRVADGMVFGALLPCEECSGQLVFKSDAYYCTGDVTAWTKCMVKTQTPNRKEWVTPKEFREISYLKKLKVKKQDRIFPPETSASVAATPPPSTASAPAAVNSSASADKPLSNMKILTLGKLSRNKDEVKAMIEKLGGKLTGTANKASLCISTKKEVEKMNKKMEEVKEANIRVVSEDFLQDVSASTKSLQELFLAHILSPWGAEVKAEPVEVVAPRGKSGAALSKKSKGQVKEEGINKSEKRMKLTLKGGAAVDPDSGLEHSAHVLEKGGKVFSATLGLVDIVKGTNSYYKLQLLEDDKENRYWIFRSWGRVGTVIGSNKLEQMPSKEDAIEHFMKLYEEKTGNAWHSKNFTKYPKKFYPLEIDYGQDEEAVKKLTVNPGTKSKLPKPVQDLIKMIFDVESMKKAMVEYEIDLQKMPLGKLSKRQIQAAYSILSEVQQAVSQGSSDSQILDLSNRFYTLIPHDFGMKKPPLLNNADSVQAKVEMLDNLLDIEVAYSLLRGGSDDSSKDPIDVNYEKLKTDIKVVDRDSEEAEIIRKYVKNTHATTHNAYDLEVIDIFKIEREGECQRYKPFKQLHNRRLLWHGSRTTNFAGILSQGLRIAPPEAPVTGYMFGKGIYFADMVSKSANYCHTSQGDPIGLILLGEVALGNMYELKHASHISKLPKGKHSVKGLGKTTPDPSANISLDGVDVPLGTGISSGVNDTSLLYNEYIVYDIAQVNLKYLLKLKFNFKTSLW
assay: PARP1 in vitro enzyme activity inhibition (chemiluminescence assay)
Format: biochemical
applied conditions: 5 nM of PARP1 solution, method of test example 1; read-out: PARP1 activity inhibition IC50
pIC50: −log10 of the molar value.

Use these answered entries as a reference point.
                                   molecule       reading
0  O=C(NCCC[C@@H](Nc1cn[nH]c(=O)c1C(F)(F)F)C(=O)NC1CCC1)c1ccc(-c2ncc(C(F)(F)F)s2)cc1        < 7.00
1  O=C(NCCCC(Nc1cn[nH]c(=O)c1C(F)(F)F)C(=O)N1CCOCC1)c1ccc(-c2ncc(C(F)(F)F)s2)cc1 (stereo not shown)  7.00 to 7.52
2  O=C(NCCC[C@@H](Nc1cn[nH]c(=O)c1C(F)(F)F)C(=O)N1CC[C@H](F)C1)c1ccc(-c2ncc(C(F)(F)F)s2)cc1  7.52 to 8.00
3  CC1(C)CN(C(=O)C(CCCNC(=O)c2cnc(-c3ncc(C(F)(F)F)cn3)cn2)Nc2cn[nH]c(=O)c2C(F)(F)F)C1 (stereo not shown)  7.00 to 7.52
4  O=C(NCCC[C@@H](Nc1cn[nH]c(=O)c1C(F)(F)F)C(=O)N1CC[C@@H](F)C1)c1ccc(-c2ncc(C(F)(F)F)s2)cc1  7.52 to 8.00

Looking up CC(C)(C)NC(=O)[C@@H](CCCNC(=O)c1ccc(-c2ncc(C(F)(F)F)s2)cc1)Nc1cn[nH]c(=O)c1C(F)(F)F , I see its pIC50 listed as < 7.00

According to the records, this molecule CNC(=O)[C@@H](CCCNC(=O)c1ccc(-c2ncc(C(F)(F)F)s2)cc1)Nc1cn[nH]c(=O)c1C(F)(F)F displays pIC50 of 7.00 to 7.52

Origin of values: patent EP4800012A1
